Molecular target: Beta Secretase enzyme (BACE) (Homo sapiens)
Assay: In vitro enzymatic BACE FRET (fluorescence resonance energy transfer) assay
Format: biochemical
Settings: average IC50, enzyme assay; read-out: BACE 1 FRET assay
IC50 strictly under 0.01 µM means met; at 0.01 µM or over means not met.

[Q] Decide: IC50 of Cn1cc(-c2cnc3c(c2)[C@@]2(COC(N)=N2)c2c(ccc(-c4cccnc4F)c2F)O3)cn1 strictly below 0.01 µM?
[A] not met

[Q] Decide: IC50 of CC1(C#Cc2cc3c(cn2)Oc2ccc(-c4cccnc4)cc2[C@@]32COC(N)=N2)COC1 strictly below 0.01 µM?
[A] met

[Q] Decide: IC50 of CC(C)(C#N)COc1cc(F)c2c(c1)[C@]1(CSC(N)=N1)c1cc(-c3cccnc3F)ccc1O2 strictly below 0.01 µM?
[A] met

[Q] Decide: IC50 of CC1(C#Cc2cc3c(cn2)Oc2ccc(-c4ccc(F)nc4)cc2[C@@]32COC(N)=N2)COC1 strictly below 0.01 µM?
[A] not met

[Q] Decide: IC50 of Cn1cc(-c2cccc(-c3ccc4c(c3)[C@@]3(COC(N)=N3)c3cc(C5=CCOCC5)ncc3O4)c2)cn1 strictly below 0.01 µM?
[A] not met

[Q] Decide: IC50 of CC1(C#Cc2cnc3c(c2)[C@]2(COC(N)=N2)c2cc(-c4cncc(Cl)c4)c(F)cc2O3)COC1 strictly below 0.01 µM?
[A] met

[Q] Decide: IC50 of CC1(C#Cc2cnc3c(c2)[C@@]2(COC(N)=N2)c2c(ccc(-c4cccnc4F)c2F)O3)COC1 strictly below 0.01 µM?
[A] not met

###

Task for the reader: assign each of the following molecules its reported IC50.
Target: Beta Secretase enzyme (BACE) (Homo sapiens, UniProt P56817)
Sequence (P56817 46-501, species assumed): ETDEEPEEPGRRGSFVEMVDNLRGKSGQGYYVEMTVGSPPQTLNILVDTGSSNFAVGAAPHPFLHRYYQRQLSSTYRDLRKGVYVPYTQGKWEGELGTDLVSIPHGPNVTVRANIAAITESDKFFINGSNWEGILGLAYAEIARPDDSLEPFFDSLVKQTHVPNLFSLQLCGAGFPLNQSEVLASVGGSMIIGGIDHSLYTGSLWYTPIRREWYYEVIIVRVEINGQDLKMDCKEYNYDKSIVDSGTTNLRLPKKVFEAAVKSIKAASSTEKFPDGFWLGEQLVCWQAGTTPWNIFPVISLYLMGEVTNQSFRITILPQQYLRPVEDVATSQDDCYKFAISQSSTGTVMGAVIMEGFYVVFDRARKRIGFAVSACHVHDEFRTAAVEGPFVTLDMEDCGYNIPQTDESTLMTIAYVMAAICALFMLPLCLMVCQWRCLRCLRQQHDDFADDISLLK
Experiment: In vitro enzymatic BACE FRET (fluorescence resonance energy transfer) assay
Format: biochemical
Settings: average IC50, enzyme assay; read-out: BACE 1 FRET assay
Your reply should be a number followed by the unit it is expressed in.

Let me check: Cc1ccc(-c2ccc3c(c2)[C@@]2(COC(N)=N2)c2cc(-c4ccnc(F)c4)ncc2O3)c(F)n1 [Example 254] , system Beta Secretase enzyme (BACE) (Homo sapiens, UniProt P56817), measured IC50 is 54.5 nM

Let me check: COc1cc(F)c2c(c1)[C@]1(CSC(N)=N1)c1cc(-c3cccnc3)ccc1O2 [Example 650] , system Beta Secretase enzyme (BACE) (Homo sapiens, UniProt P56817), measured IC50 is 9 nM

Let me check: Cc1ccnn1-c1cc(F)c2c(c1)[C@]1(COC(N)=N1)c1cc(-c3cncnc3)ccc1O2 [Example 636] , system Beta Secretase enzyme (BACE) (Homo sapiens, UniProt P56817), measured IC50 is 28.8 nM

Let me check: C[C@@H]1CN(c2cc(F)c3c(c2)[C@]2(COC(N)=N2)c2cc(-c4cncc(C#N)c4)ccc2O3)C[C@H](C)O1 [Example 560] , system Beta Secretase enzyme (BACE) (Homo sapiens, UniProt P56817), measured IC50 is 2.8 nM

Let me check: CC1(C#Cc2cnc3c(c2)[C@@]2(COC(N)=N2)c2c(ccc(-c4ccc(F)nc4)c2F)O3)COC1 [Example 343] , system Beta Secretase enzyme (BACE) (Homo sapiens, UniProt P56817), measured IC50 is 391 nM

Let me check: CC1(COc2cc3c(cc2F)Oc2ccc(-c4ccc(F)nc4)cc2[C@@]32COC(N)=N2)COC1 [Example 326] , system Beta Secretase enzyme (BACE) (Homo sapiens, UniProt P56817), measured IC50 is 19.7 nM

Let me check: CC(C)(C#N)COc1ccc2c(c1)[C@@]1(COC(N)=N1)c1cc(C3=CCOCC3)cc(F)c1O2 [Example 441] , system Beta Secretase enzyme (BACE) (Homo sapiens, UniProt P56817), measured IC50 is 4 nM

###

Task for the reader: assign each of the following compounds its reported pIC50.
Molecular target: Beta Secretase enzyme (BACE) (Homo sapiens, UniProt P56817)
Assay: In vitro enzymatic BACE FRET (fluorescence resonance energy transfer) assay
Type: biochemical
Conditions: average IC50, enzyme assay; read-out: BACE 1 FRET assay
# pIC50 is unitless: minus log10 of the molar concentration; print number only

Let me check: Cn1cc(-c2cnc3c(c2)[C@]2(CSC(N)=N2)c2cc(-c4cccnc4F)ccc2O3)cn1 , system Beta Secretase enzyme (BACE) (Homo sapiens, UniProt P56817), measured pIC50 is 8.70

Let me check: Cc1ccnc(Oc2ccc3c(c2)[C@@]2(COC(N)=N2)c2cc(N4CCOCC4)cc(F)c2O3)c1 , system Beta Secretase enzyme (BACE) (Homo sapiens, UniProt P56817), measured pIC50 is 7.47

Let me check: NC1=N[C@]2(CO1)c1cc(-c3cccc(Cl)c3)ccc1Oc1cnc(C3=CCOCC3)cc12 , system Beta Secretase enzyme (BACE) (Homo sapiens, UniProt P56817), measured pIC50 is 6.31

Let me check: CC(C)(C#N)COc1cc(F)c2c(c1)[C@]1(COC(N)=N1)c1cc(-c3cnccc3F)ccc1O2 , system Beta Secretase enzyme (BACE) (Homo sapiens, UniProt P56817), measured pIC50 is 9.10

Let me check: CCn1cc(-c2cccc(-c3ccc4c(c3)[C@@]3(COC(N)=N3)c3cc(C5=CCOCC5)ncc3O4)c2)cn1 , system Beta Secretase enzyme (BACE) (Homo sapiens, UniProt P56817), measured pIC50 is 7.27

Let me check: Cc1ccnn1-c1cnc2c(c1)[C@]1(COC(N)=N1)c1cc(-c3cccnc3F)ccc1O2 , system Beta Secretase enzyme (BACE) (Homo sapiens, UniProt P56817), measured pIC50 is 7.78

Let me check: COCC1SC(N)=NC12c1cc(-c3cccnc3F)ccc1Oc1c(F)cc(OC)cc12 (stereo not drawn) [Example 1089] , system Beta Secretase enzyme (BACE) (Homo sapiens, UniProt P56817), measured pIC50 is 8.48

Let me check: NC1=N[C@@]2(CO1)c1cc(-c3ccc(F)cc3)ccc1Oc1cnc(C3=CCOCC3)cc12 , system Beta Secretase enzyme (BACE) (Homo sapiens, UniProt P56817), measured pIC50 is 8.03

Let me check: NC1=N[C@@]2(CO1)c1cc(OCc3ccccc3)ccc1Oc1ncc(C3=CCOCC3)cc12 , system Beta Secretase enzyme (BACE) (Homo sapiens, UniProt P56817), measured pIC50 is 7.35

Let me check: Cc1ccc(-c2cc(F)c3c(c2)[C@]2(CSC(N)=N2)c2cc(-c4cccnc4F)ccc2O3)cn1 , system Beta Secretase enzyme (BACE) (Homo sapiens, UniProt P56817), measured pIC50 is 7.17

Let me check: NC1=N[C@@]2(CO1)c1cc(-c3cc(Cl)cnc3F)ccc1Oc1cnc(C3=CCOCC3)cc12 , system Beta Secretase enzyme (BACE) (Homo sapiens, UniProt P56817), measured pIC50 is 9.30

Let me check: NC1=N[C@@]2(CO1)c1cc(-c3cncc(F)c3)ccc1Oc1c2cc(N2CC[C@@H](F)C2)nc1F , system Beta Secretase enzyme (BACE) (Homo sapiens, UniProt P56817), measured pIC50 is 9.30

Let me check: NC1=N[C@@]2(CO1)c1cc(-c3cccnc3F)c(F)cc1Oc1c(F)cc(N3CCOCC3)cc12 (single isomer, unassigned) , system Beta Secretase enzyme (BACE) (Homo sapiens, UniProt P56817), measured pIC50 is 9.30

Let me check: CC1(COc2cc3c(cc2F)Oc2ccc(-c4cccc(Cl)c4)cc2[C@@]32COC(N)=N2)COC1 , system Beta Secretase enzyme (BACE) (Homo sapiens, UniProt P56817), measured pIC50 is 8.49

Let me check: NC1=N[C@@]2(CO1)c1cc(-c3cccnc3F)ccc1Oc1c(F)cc(N3CC4(COC4)C3)cc12 , system Beta Secretase enzyme (BACE) (Homo sapiens, UniProt P56817), measured pIC50 is 8.70

###

Molecular target: Beta Secretase enzyme (BACE) (Homo sapiens)
Experiment: In vitro enzymatic BACE FRET (fluorescence resonance energy transfer) assay
Assay type: biochemical
Details: average IC50, enzyme assay; read-out: BACE 1 FRET assay
Task for the reader: assign each of the following compounds its reported IC50.
Answer in nM, number only, no unit symbol.

Let me check: NC1=N[C@@]2(CS1)c1cc(-c3cccnc3F)ccc1Oc1cnc(C3=CCCOC3)cc12 , system Beta Secretase enzyme (BACE) (Homo sapiens), measured IC50 is 0.4

Let me check: NC1=N[C@@]2(CO1)c1cc(-c3cccnc3F)ccc1Oc1cnc(N3C[C@@H]4C[C@H]3CO4)cc12 , system Beta Secretase enzyme (BACE) (Homo sapiens), measured IC50 is 1.9

Let me check: CNC(=O)c1ccc(F)c(-c2ccc3c(c2)[C@@]2(COC(N)=N2)c2cc(C4=CCOCC4)cnc2O3)c1 , system Beta Secretase enzyme (BACE) (Homo sapiens), measured IC50 is 11.7

Let me check: NC1=N[C@@]2(CS1)c1cc(-c3cccnc3F)ccc1Oc1ncc(C3=CCOCC3)cc12 , system Beta Secretase enzyme (BACE) (Homo sapiens), measured IC50 is 0.5

Let me check: NC1=NC2(CO1)c1cc(-c3cccnc3F)ccc1Oc1c(F)cc(C3=CCOCC3)nc12 (stereo not shown) , system Beta Secretase enzyme (BACE) (Homo sapiens), measured IC50 is 3.5

Let me check: NC1=N[C@@]2(CO1)c1cc(-c3cccnc3F)ccc1Oc1c2cc(N2CC[C@@H](F)C2)nc1F , system Beta Secretase enzyme (BACE) (Homo sapiens), measured IC50 is 0.3

Let me check: NC1=N[C@@]2(CO1)c1cc(-c3cccc(Cl)c3)ccc1Oc1cnc(N3CCC(F)(F)C3)cc12 , system Beta Secretase enzyme (BACE) (Homo sapiens), measured IC50 is 2

These data points were gathered from patent US8883782B2.
